// data source = patent US8680275B2

- System: human orexin-2 receptor (Homo sapiens (Human), UniProt O43614)
- Sequence (O43614 whole entry): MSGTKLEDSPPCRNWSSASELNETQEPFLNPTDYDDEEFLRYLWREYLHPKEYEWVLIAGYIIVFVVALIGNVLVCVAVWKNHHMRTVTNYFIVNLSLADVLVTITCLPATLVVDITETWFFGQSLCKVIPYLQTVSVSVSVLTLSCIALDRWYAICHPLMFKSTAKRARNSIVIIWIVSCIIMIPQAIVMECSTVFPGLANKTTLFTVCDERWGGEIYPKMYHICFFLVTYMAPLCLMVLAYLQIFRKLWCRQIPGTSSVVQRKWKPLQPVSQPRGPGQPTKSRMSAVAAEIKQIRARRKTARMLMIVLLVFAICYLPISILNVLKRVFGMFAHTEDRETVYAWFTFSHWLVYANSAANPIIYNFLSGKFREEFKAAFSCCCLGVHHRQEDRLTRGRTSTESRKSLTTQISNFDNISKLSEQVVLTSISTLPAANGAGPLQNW
- Assay name: Human orexin 2 receptor radioligand binding ([3H]-EMPA competition)
- Assay context: HEK293 cells stably expressing human orexin-2 receptor; [3H]-EMPA 5 nM final; read-out: OR-2 Ki
Listed compounds paired with reported pKi
# pKi: negative log10 of molar concentration; output just the value

Reference set (5 entries):
# Compound, pKi
records = [
    ("O=C(c1ccccc1-c1cccs1)N1C[C@@H]2CN(c3nccc(-c4ccccc4)n3)[C@@H]2C1 (single isomer, unassigned)", 7.04),
    ("O=C(c1cccc(F)c1-n1nccn1)N1CC[C@H]2CN(c3cc(C(F)(F)F)ccn3)[C@H]2C1", 6.96),
    ("Cc1cc(N2C[C@@H]3CCN(C(=O)c4ccccc4-n4nccn4)C[C@@H]32)nc(N(C)C)n1", 7.05),
    ("O=C(c1cc(F)ccc1-n1nccn1)N1CC[C@H]2CN(c3cccc(C(F)(F)F)n3)[C@H]2C1", 7.44),
    ("Cc1ccc(-c2ncccn2)c(C(=O)N2CC[C@H]3CN(c4nc(C)cc(C)n4)[C@H]3C2)c1", 7.55),
]

Ask | Name the recorded pKi of the item O=C(c1c(F)cccc1-n1nccn1)N1CC[C@H]2CN(c3cnc4ccccc4n3)[C@H]2C1 in your answer.
Reply | 7.74

Ask | Name the recorded pKi of the item Cc1cccc(N2C[C@@H]3CCN(C(=O)c4c(F)cccc4-n4nccn4)C[C@@H]32)n1 in your answer.
Reply | 7.04

###

- System: human orexin 1 receptor (Homo sapiens (Human), UniProt O43613)
- Sequence (O43613 whole entry): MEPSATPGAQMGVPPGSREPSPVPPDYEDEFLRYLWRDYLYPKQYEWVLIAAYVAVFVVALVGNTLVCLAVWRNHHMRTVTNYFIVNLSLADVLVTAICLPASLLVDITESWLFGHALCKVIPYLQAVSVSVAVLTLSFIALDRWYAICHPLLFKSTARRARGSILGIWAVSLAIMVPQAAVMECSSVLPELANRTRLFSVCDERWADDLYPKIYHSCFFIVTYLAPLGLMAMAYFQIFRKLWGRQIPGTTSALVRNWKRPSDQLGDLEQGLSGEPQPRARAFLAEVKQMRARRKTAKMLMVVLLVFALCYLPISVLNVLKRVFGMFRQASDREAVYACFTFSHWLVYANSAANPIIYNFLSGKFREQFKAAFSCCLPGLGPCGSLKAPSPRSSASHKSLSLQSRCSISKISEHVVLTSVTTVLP
- Assay name: Human orexin 1 receptor radioligand binding ([3H]-SB674042 competition)
- Assay context: CHO cells stably expressing human orexin 1 receptor; [3H]-SB674042 4 nM final; read-out: OR-1 Ki
Listed molecules paired with reported pKi
# pKi: negative log10 of molar concentration; output just the value

Reference set (3 entries):
# Molecule, System, pKi
records = [
    ("COc1ccccc1C(=O)N1CC2CN(c3cnc4ccccc4n3)C2C1 (stereo not shown)", "human orexin 1 receptor (Homo sapiens (Human), UniProt O43613)", 5.46),
    ("O=C(c1ccccc1-c1ccccc1)N1CC2CN(c3cnc4ccccc4n3)C2C1 (stereo not shown)", "human orexin 1 receptor (Homo sapiens (Human), UniProt O43613)", 6.59),
    ("Cc1ccc(S(=O)(=O)N2CC[C@H]3CN(c4cnc5ccccc5n4)[C@H]3C2)c(C)c1", "human orexin 1 receptor (Homo sapiens (Human), UniProt O43613)", 6.42),
]

Attention now turns to another entry.
Ask | Name the recorded pKi of the item Cc1nc(C(=O)N2CC3CN(c4nccc(-c5ccccc5)n4)C3C2)c(-c2ccccc2F)s1 (stereo not shown) in your answer.
Reply | 6.98

###

- System: human orexin 1 receptor (Homo sapiens (Human))
- Assay name: Human orexin 1 receptor radioligand binding ([3H]-SB674042 competition)
- Assay context: CHO cells stably expressing human orexin 1 receptor; [3H]-SB674042 4 nM final; read-out: OR-1 Ki
Endpoint: Ki

Reference set (3 entries):
# Compound, System, Meas value
data = [
    ("Cc1cc(C)nc(N2C[C@@H]3CCN(C(=O)c4cc(C)c(C)nc4-n4nccn4)C[C@@H]32)n1", "human orexin 1 receptor (Homo sapiens (Human))", "3900 nM"),
    ("Cc1nccnc1N1C[C@@H]2CCN(C(=O)c3cc(F)ccc3-n3nccn3)C[C@@H]21", "human orexin 1 receptor (Homo sapiens (Human))", "10000 nM"),
    ("O=C(c1ccccc1-c1cccs1)N1C[C@H]2CN(c3nccc(-c4ccccc4)n3)[C@H]2C1 (single isomer, unassigned)", "human orexin 1 receptor (Homo sapiens (Human))", "55 nM"),
]

Ask | Name the recorded Ki of the item Cc1ccnc(N2CC3CN(C(=O)c4ccccc4-c4cccs4)CC32)n1 (stereo not drawn) in your answer.
Reply | 10000 nM

Ask | Name the recorded Ki of the item Cc1cnc(C)c(N2C[C@@H]3CCN(C(=O)c4cc(F)ccc4-n4nccn4)C[C@@H]32)n1 in your answer.
Reply | 5020 nM

Ask | Name the recorded Ki of the item Cc1ccc(C(=O)N2CC[C@H]3CN(c4nccc(C(F)(F)F)n4)[C@H]3C2)c(-n2ccnn2)n1 in your answer.
Reply | 3700 nM

Ask | Name the recorded Ki of the item CN(C)c1cc(N2C[C@@H]3CCN(C(=O)c4cc(F)ccc4-n4nccn4)C[C@@H]32)ncn1 in your answer.
Reply | 4100 nM

Ask | Name the recorded Ki of the item Cc1cc(C)nc(N2C[C@@H]3CCN(C(=O)c4ncccc4Br)C[C@@H]32)n1 in your answer.
Reply | 10000 nM

Ask | Name the recorded Ki of the item Cc1ccc(-n2nccn2)c(C(=O)N2CC3CN(c4nc(C)cc(C)n4)C3C2)c1 (stereo not drawn) in your answer.
Reply | 5000 nM

Ask | Name the recorded Ki of the item O=C(c1cc(F)ccc1-n1nccn1)N1CC[C@H]2CN(c3cnc4ccccc4n3)[C@H]2C1 in your answer.
Reply | 33 nM

Ask | Name the recorded Ki of the item Cc1cc(C)nc(N2C[C@@H]3CCN(C(=O)c4cccc(C)c4-n4ccnn4)C[C@@H]32)n1 in your answer.
Reply | 1650 nM

Ask | Name the recorded Ki of the item Cc1cc(C)nc(N2C[C@@H]3CCN(C(=O)c4ccccc4-n4cccc4)C[C@@H]32)n1 in your answer.
Reply | 371 nM

Ask | Name the recorded Ki of the item Cc1cnc(C)c(N2C[C@@H]3CCN(C(=O)c4ccc(F)cc4-n4nccn4)C[C@@H]32)n1 in your answer.
Reply | ≥ 10000 nM

Ask | Name the recorded Ki of the item Cc1cc(C)nc(N2C[C@@H]3CCN(C(=O)c4ncoc4-c4ccccc4F)C[C@@H]32)n1 in your answer.
Reply | 2400 nM

Ask | Name the recorded Ki of the item COc1ccnc(N2CC3CN(C(=O)c4ccccc4-c4ccccc4)CC32)n1 (stereo not drawn) in your answer.
Reply | 10000 nM

Ask | Name the recorded Ki of the item Cc1onc(-c2ccccc2)c1C(=O)N1CC[C@H]2CN(c3ccnc(-c4ccccc4)n3)[C@H]2C1 in your answer.
Reply | 2600 nM

Ask | Name the recorded Ki of the item Cc1cc(N2C[C@@H]3CCN(C(=O)c4ccccc4-n4nccn4)C[C@@H]32)nc(C(F)(F)F)n1 in your answer.
Reply | 117 nM

Ask | Name the recorded Ki of the item COc1ccc(Br)c(C(=O)N2CC[C@H]3CN(c4nc(C)cc(C)n4)[C@H]3C2)c1F in your answer.
Reply | 1200 nM

Ask | Name the recorded Ki of the item Nc1cc(N2C[C@@H]3CCN(C(=O)c4cc(F)ccc4-n4nccn4)C[C@@H]32)nc(N)n1 in your answer.
Reply | 10000 nM

Ask | Name the recorded Ki of the item O=C(c1c(F)cccc1-n1nccn1)N1CC[C@H]2CN(c3nc4cc(Cl)ccc4o3)[C@H]2C1 in your answer.
Reply | 43 nM

Ask | Name the recorded Ki of the item Cc1cc(C)nc(N2C[C@@H]3CCN(C(=O)c4ccccc4-c4cccs4)C[C@@H]32)n1 in your answer.
Reply | 64 nM
